Test system: Bacillus megaterium Bm11
Type: cell-based
Conditions: 100% inhibition of growth after 18–20 h
Square brackets hold non-standard residues; d marks the D form. Peptide text beside a SMILES is read from it.
Measured Property: Minimal Inhibitory Concentration B. megaterium (Bm11) (µM)
Return type: number; implicit unit µM.

Entry C[C@H](NC(=O)[C@H](C)NC(=O)[C@H](CCCCN)NC(=O)[C@@H](C)NC(=O)[C@@H](C)NC(=O)[C@H](C)NC(=O)[C@@H](N)CCCCN)C(=O)N[C@H](C)C(=O)N[C@@H](CCCCN)C(=O)N[C@H](C)C(=O)N[C@@H](C)C(=O)N[C@@H](CCCCN)C(N)=O [Peptide 33, [D]-A^3,4,8,10-K4A8] (H-KA[dA][dA]KAA[dA]K[dA]AK-NH2) — recorded Minimal Inhibitory Concentration B. megaterium (Bm11) = 1

* * *

System: Bacillus megaterium Bm11
Assay type: cell-based
Settings: 100% inhibition of growth after 18–20 h
Square brackets hold non-standard residues; d marks the D form. Peptide text beside a SMILES is read from it.
Item-by-item account of Minimal Inhibitory Concentration B. megaterium (Bm11)
Return type: number; implicit unit µM.

Some solved cases for reference:
CC(C)C[C@H](NC(=O)[C@H](CC(C)C)NC(=O)[C@@H](CC(C)C)NC(=O)[C@H](N)CCCCN)C(=O)N[C@H](CCCCN)C(=O)N[C@H](CC(C)C)C(=O)N[C@H](CCCCN)C(=O)N[C@@H](CC(C)C)C(=O)N[C@H](CCCCN)C(=O)N[C@@H](CC(C)C)C(=O)N[C@H](CC(C)C)C(=O)N[C@H](CCCCN)C(N)=O [Peptide 27, [D]-K^1,5,7,9,12L^2,6,11-K5L7] (H-[dK][dL]LL[dK][dL][dK]L[dK]L[dL][dK]-NH2); 0.2
CC(C)C[C@H](NC(=O)[C@H](CCCCN)NC(=O)[C@@H](CC(C)C)NC(=O)[C@@H](CC(C)C)NC(=O)[C@H](CC(C)C)NC(=O)[C@@H](N)CCCCN)C(=O)N[C@@H](CCCCN)C(=O)N[C@H](CC(C)C)C(=O)N[C@@H](CCCCN)C(=O)N[C@H](CC(C)C)C(=O)N[C@@H](CC(C)C)C(=O)N[C@@H](CCCCN)C(N)=O [Peptide 24, [D]-L^3,4,8,10-K5L7] (H-KL[dL][dL]KLK[dL]K[dL]LK-NH2); 0.25

Then this compound:
Entry CC(C)C[C@H](NC(=O)[C@@H](CC(C)C)NC(=O)[C@H](CC(C)C)NC(=O)[C@@H](CC(C)C)NC(=O)[C@@H](N)CCCCN)C(=O)N[C@@H](CCCCN)C(=O)O [Peptide 28, [D]-L^2,4-K2L4] (H-K[dL]L[dL]LK-OH) — recorded Minimal Inhibitory Concentration B. megaterium (Bm11) = 50

* * *

Tested on: Bacillus megaterium Bm11
Type: cell-based
Conditions: 100% inhibition of growth after 18–20 h
Square brackets hold non-standard residues; d marks the D form. Peptide text beside a SMILES is read from it.
Item-by-item account of Minimal Inhibitory Concentration B. megaterium (Bm11)
Return type: number; implicit unit µM.

CC(C)[C@H](NC(=O)[C@H](CCCCN)NC(=O)[C@H](NC(=O)[C@H](NC(=O)[C@@H](NC(=O)[C@@H](N)CCCCN)C(C)C)C(C)C)C(C)C)C(=O)N[C@H](C(=O)N[C@@H](C(=O)N[C@@H](CCCCN)C(=O)N[C@@H](C(=O)N[C@H](C(=O)N[C@@H](CCCCN)C(N)=O)C(C)C)C(C)C)C(C)C)C(C)C [Peptide 34, [D]-V^3,4,8,10-K4V8] (H-KV[dV][dV]KVV[dV]K[dV]VK-NH2); 0.8

Then this molecule:
Entry CC(C)C[C@H](NC(=O)[C@H](CC(C)C)NC(=O)[C@@H](CC(C)C)NC(=O)[C@H](N)CCCCN)C(=O)N[C@H](CCCCN)C(=O)N[C@H](CC(C)C)C(=O)N[C@H](CC(C)C)C(=O)N[C@@H](CC(C)C)C(=O)N[C@H](CCCCN)C(=O)N[C@@H](CC(C)C)C(=O)N[C@H](CC(C)C)C(=O)N[C@H](CCCCN)C(N)=O [Peptide 26, [D]-K^1,5,9,12L^2,6,7,11-K4L8] (H-[dK][dL]LL[dK][dL][dL]L[dK]L[dL][dK]-NH2) — recorded Minimal Inhibitory Concentration B. megaterium (Bm11) = 0.5

* * *

Test system: Acinetobacter calcoaceticus Ac11
Type: cell-based
Conditions: 100% inhibition of growth after 18–20 h
Square brackets hold non-standard residues; d marks the D form. Peptide text beside a SMILES is read from it.
Item-by-item account of Minimal Inhibitory Concentration A. calcoaceticus (Ac11)
Return type: number; implicit unit µM.

CC(C)C[C@H](NC(=O)[C@H](CCCCN)NC(=O)[C@@H](CC(C)C)NC(=O)[C@@H](CC(C)C)NC(=O)[C@H](CC(C)C)NC(=O)[C@@H](N)CCCCN)C(=O)N[C@@H](CCCCN)C(=O)N[C@H](CC(C)C)C(=O)N[C@@H](CCCCN)C(=O)N[C@H](CC(C)C)C(=O)N[C@@H](CC(C)C)C(=O)N[C@@H](CCCCN)C(N)=O [Peptide 24, [D]-L^3,4,8,10-K5L7] (H-KL[dL][dL]KLK[dL]K[dL]LK-NH2); 20
CC(C)C[C@H](NC(=O)[C@H](CCCCN)NC(=O)[C@@H](CC(C)C)NC(=O)[C@@H](CC(C)C)NC(=O)[C@H](CCCCN)NC(=O)[C@@H](N)CCCCN)C(=O)N[C@@H](CCCCN)C(=O)N[C@H](CC(C)C)C(=O)N[C@@H](CCCCN)C(=O)N[C@H](CC(C)C)C(=O)N[C@@H](CCCCN)C(=O)N[C@@H](CCCCN)C(N)=O [Peptide 25, [D]-L^3,4,8,10-K7L5] (H-KK[dL][dL]KLK[dL]K[dL]KK-NH2; N-terminus assumed); 200

Entry CC(C)C[C@H](NC(=O)[C@H](CC(C)C)NC(=O)[C@@H](CC(C)C)NC(=O)[C@@H](CC(C)C)NC(=O)[C@H](CC(C)C)NC(=O)[C@@H](N)CCCCN)C(=O)N[C@@H](CCCCN)C(=O)N[C@H](CC(C)C)C(=O)N[C@@H](CC(C)C)C(=O)N[C@H](CC(C)C)C(=O)N[C@@H](CC(C)C)C(=O)N[C@@H](CCCCN)C(N)=O [Peptide 22, [D]-L^3,4,8,10-K3L9] (H-KL[dL][dL]LLK[dL]L[dL]LK-NH2) — recorded Minimal Inhibitory Concentration A. calcoaceticus (Ac11) = 20

* * *

Test system: human red blood cells (hRBC)
Assay: Hemolysis of human red blood cells
Format: cell-based
Settings: hRBC, 100 μM, 30 min at 37° C.
Square brackets hold non-standard residues; d marks the D form. Peptide text beside a SMILES is read from it.
Measured Property: % hemolysis at 100 μM (%)
Return type: number; implicit unit %.

Some solved cases for reference:
CC(C)C[C@H](NC(=O)[C@H](CC(C)C)NC(=O)[C@@H](CC(C)C)NC(=O)[C@H](N)CCCCN)C(=O)N[C@H](CCCCN)C(=O)N[C@H](CC(C)C)C(=O)N[C@H](CC(C)C)C(=O)N[C@@H](CC(C)C)C(=O)N[C@H](CCCCN)C(=O)N[C@@H](CC(C)C)C(=O)N[C@H](CC(C)C)C(=O)N[C@H](CCCCN)C(N)=O [Peptide 26, [D]-K^1,5,9,12L^2,6,7,11-K4L8] (H-[dK][dL]LL[dK][dL][dL]L[dK]L[dL][dK]-NH2); 0
CC(C)C[C@H](NC(=O)[C@H](CCCCN)NC(=O)[C@@H](CC(C)C)NC(=O)[C@@H](CC(C)C)NC(=O)[C@H](CCCCN)NC(=O)[C@@H](N)CCCCN)C(=O)N[C@@H](CCCCN)C(=O)N[C@H](CC(C)C)C(=O)N[C@@H](CCCCN)C(=O)N[C@H](CC(C)C)C(=O)N[C@@H](CCCCN)C(=O)N[C@@H](CCCCN)C(N)=O [Peptide 25, [D]-L^3,4,8,10-K7L5] (H-KK[dL][dL]KLK[dL]K[dL]KK-NH2; N-terminus assumed); 0

Then this compound:
Entry CC(C)C[C@H](NC(=O)[C@H](CCCCN)NC(=O)[C@@H](CC(C)C)NC(=O)[C@@H](CC(C)C)NC(=O)[C@H](CC(C)C)NC(=O)[C@@H](N)CCCCN)C(=O)N[C@@H](CCCCN)C(=O)N[C@H](CC(C)C)C(=O)N[C@@H](CCCCN)C(=O)N[C@H](CC(C)C)C(=O)N[C@@H](CC(C)C)C(=O)N[C@@H](CCCCN)C(N)=O [Peptide 24, [D]-L^3,4,8,10-K5L7] (H-KL[dL][dL]KLK[dL]K[dL]LK-NH2) — recorded % hemolysis at 100 μM = 0
